- Experimental target: Full length WRN protein (aa 2-1432) (Homo sapiens (Human))
- Sequence (Q14191 2-1432): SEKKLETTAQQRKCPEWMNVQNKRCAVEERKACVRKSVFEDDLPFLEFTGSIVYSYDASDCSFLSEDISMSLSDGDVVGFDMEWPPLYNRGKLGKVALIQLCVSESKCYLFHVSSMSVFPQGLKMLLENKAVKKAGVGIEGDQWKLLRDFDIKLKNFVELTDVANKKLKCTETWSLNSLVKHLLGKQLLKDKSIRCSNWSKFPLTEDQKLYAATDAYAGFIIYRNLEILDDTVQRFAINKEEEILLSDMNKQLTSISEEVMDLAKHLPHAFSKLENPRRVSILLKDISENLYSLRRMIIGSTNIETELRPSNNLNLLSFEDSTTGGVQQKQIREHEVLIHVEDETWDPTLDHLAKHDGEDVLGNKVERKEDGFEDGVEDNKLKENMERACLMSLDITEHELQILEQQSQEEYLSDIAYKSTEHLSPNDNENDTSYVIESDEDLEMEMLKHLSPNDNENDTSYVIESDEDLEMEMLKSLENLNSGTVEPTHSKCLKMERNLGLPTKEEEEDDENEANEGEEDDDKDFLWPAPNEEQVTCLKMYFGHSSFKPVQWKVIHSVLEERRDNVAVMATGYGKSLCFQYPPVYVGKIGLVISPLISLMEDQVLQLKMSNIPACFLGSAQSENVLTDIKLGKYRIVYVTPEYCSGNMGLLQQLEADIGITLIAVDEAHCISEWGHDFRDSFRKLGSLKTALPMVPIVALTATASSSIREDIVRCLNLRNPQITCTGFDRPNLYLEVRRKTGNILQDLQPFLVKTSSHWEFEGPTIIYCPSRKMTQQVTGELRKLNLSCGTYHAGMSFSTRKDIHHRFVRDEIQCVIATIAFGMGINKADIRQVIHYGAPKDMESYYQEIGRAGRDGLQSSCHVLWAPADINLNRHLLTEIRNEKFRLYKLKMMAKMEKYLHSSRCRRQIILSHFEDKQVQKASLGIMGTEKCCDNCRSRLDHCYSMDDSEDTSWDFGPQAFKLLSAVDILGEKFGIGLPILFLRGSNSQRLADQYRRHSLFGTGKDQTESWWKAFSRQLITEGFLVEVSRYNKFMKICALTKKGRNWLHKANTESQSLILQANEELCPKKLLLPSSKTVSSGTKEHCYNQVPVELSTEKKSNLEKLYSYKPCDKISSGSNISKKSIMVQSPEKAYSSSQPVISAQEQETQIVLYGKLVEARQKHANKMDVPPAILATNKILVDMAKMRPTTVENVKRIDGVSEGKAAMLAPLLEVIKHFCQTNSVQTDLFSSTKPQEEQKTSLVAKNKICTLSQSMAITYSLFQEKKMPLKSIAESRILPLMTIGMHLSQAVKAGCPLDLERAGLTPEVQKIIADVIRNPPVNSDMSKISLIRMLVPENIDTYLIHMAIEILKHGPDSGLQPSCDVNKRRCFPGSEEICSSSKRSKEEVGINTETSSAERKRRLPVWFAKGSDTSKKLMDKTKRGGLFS
- Assay remarks: WRN ATPase ADP-Glo biochemical assay, Assay Format A (10 μM ATP)
- Experimental conditions: 0.25 nM WRN, 100 nM C6.18 ssDNA, 30 min preincubation, read-out: ATPase ADPGlo AC50 (uM)- Assay Format A
Attribute measured: AC50

Field: example entries. Status: answers known.
| Compound | AC50 |
| --- | --- |
| C=CC(=O)N1CCc2nn(-c3ccc(C4CC4)cc3)c3c2C(C1)N(C(=O)c1ccc(Br)nc1N)CC3 (centres unmarked) | 0.0015 to 0.005 µM |
| C=CC(=O)N1CCc2nn(-c3ccc(C(C)C)cc3)c3c2C(C1)N(C(=O)c1cnc(C(F)(F)F)c(O)c1)CC3 (centres unmarked) | 0.0015 to 0.005 µM |

Exercise: API: value(readout=AC50, system=Full length WRN protein (aa 2-1432) (Homo sapiens (Human))) for record C=CC(=O)N1CC(OCc2ncco2)c2nn(-c3ccc(C4CC4)cc3)c3c2C(C1)N(C(=O)c1cnc(C(F)(F)F)cc1N)CC3 (centres unmarked)
Key: < 0.0015 µM

Exercise: Likewise for C=CC(=O)N1CCc2nn(-c3ccc(C(C)C)cc3)c3c2C(C1)N(C(=O)c1cnc(C(F)(F)F)c(OC2CNC2)c1)CC3 (centres unmarked) ?
Key: 0.005 to 0.015 µM

Exercise: // same read-out, input: C=CC(=O)N1CCc2nn(-c3ccc(C4CCC4)cc3Cl)c3c2C(C1)N(C(=O)c1cnc(C(F)(F)F)cc1N)CC3 (centres unmarked)
Key: < 0.0015 µM

Exercise: Now consider C=CC(=O)N1CCc2nn(-c3ccc(C4CC4)cc3)c3c2C(C1)N(C(=O)c1ccc(Cl)nc1N)CC3 (centres unmarked) and answer again.
Key: < 0.0015 µM

Exercise: Can you handle C=CC(=O)N1CCc2nn(-c3ccc(C4CCC4)c(F)c3O)c3c2C(C1)N(C(=O)c1cnc(C(F)(F)F)cc1N)CC3 (centres unmarked) next?
Key: < 0.0015 µM

Exercise: Now consider C=CC(=O)N1CC(OC2CC2)c2nn(-c3ccc(C4CCC4)cc3)c3c2C(C1)N(C(=O)c1cnc(C(F)(F)F)cc1N)CC3 (centres unmarked) .
Key: < 0.0015 µM

Exercise: Record: C=CC(=O)N1CCOc2nn(-c3ccc(C(C)C)cc3O)c3c2C(C1)N(C(=O)c1ccc(Br)c2[nH]cnc12)CC3 (centres unmarked)
Key: < 0.0015 µM

Exercise: Also C=CC(=O)N1CCc2nn(-c3ccc(C(C)C)cc3)c3c2C(C1)N(C(=O)c1ccc(C(F)(F)F)c(=O)[nH]1)CC3 (centres unmarked) , if possible.
Key: 0.0015 to 0.005 µM

Exercise: Similarly, C=CC(=O)N1CC(C)c2nn(-c3ccc(C4CC4)cc3O)c3c2C(C1)N(C(=O)c1cnc(C(F)(F)F)cc1N)CC3 (centres unmarked) [Compound 195] ?
Key: < 0.0015 µM

Exercise: Thanks! And C=CC(=O)N1CCc2nn(-c3ccc(C4CC4)cc3)c3c2C(C1)N(C(=O)c1cnc(C(F)(F)F)c(O)c1)CC3 (centres unmarked) ?
Key: 0.0015 to 0.005 µM

Exercise: // repeat for CS(=O)(=O)/C=C/CN1CCc2nn(-c3ccc(C4CC4)cc3O)c3c2C(C1)N(C(=O)c1cnc(C(F)(F)F)cc1N)CC3 (centres unmarked) and report
Key: > 0.055 µM

Exercise: Another: C=CC(=O)N1CCc2nn(-c3ccc(C4CCC4(F)F)cc3O)c3c2C(C1)N(C(=O)c1ccc(Br)c2[nH]cnc12)CC3 (centres unmarked)
Key: 0.0015 to 0.005 µM
